test system: HCT-116 colon; assay: NCI tumour cell line growth inhibition, 48 h
PROPERTY: TGI

Below, each entry is followed by its recorded TGI result.
>  <MOLECULE>
CC(C)C1CC=NN1C(=O)OC(C)(C)C (configuration not stated)

>  <RESULT>
> 100 µM

$$$$
>  <MOLECULE>
CCOC(=O)N1CCN(Cc2cc(=O)n3cc(C)ccc3n2)CC1

>  <RESULT>
> 100 µM

$$$$
>  <MOLECULE>
CCOc1ccc(N2C(=O)C3c4[nH]c5ccccc5c4C4CCC(C(C)(C)C)CC4C3C2=O)cc1 (configuration not stated)

>  <RESULT>
> 100 µM

$$$$

Noted for CC1(C)CC(=O)C2=C(C1)NC(SSC1=C(C#N)C(c3ccccc3)C3=C(CC(C)(C)CC3=O)N1)=C(C#N)C2c1ccccc1 (configuration not stated) : its TGI reads 47 µg/mL

Noted for Cc1cccc(/C=N/NC(=S)NCc2ccccn2)n1 : its TGI reads > 100 µM

Noted for COc1cc[nH]c1/C=C1\C(=O)Nc2ccc(F)c(C#C[C@@H](O)[C@@H](N)[C@@H](C)O)c21 : its TGI reads 2.89 µM

Noted for O=[N+]([O-])c1cccc(N=C2c3ccccc3CN2c2cccc([N+](=O)[O-])c2)c1 : its TGI reads > 100 µM

Noted for CC(C)Nc1[nH]c(C(=O)c2ccccc2)c(N)c1C(=S)Nc1ccccc1 : its TGI reads > 100 µM

Noted for O=C(Nc1n[nH]c2nc(-c3ccco3)c(Br)cc12)C1CC1 : its TGI reads > 25 µM

Noted for O=C(c1ccc(Cl)cc1Cl)N(Cc1cccnc1)C(=S)N(Cc1cccnc1)C(=O)c1ccc(Cl)cc1Cl : its TGI reads 6.19 µM

Noted for CCCCCCCCCCCCCCCCCCNC(=O)[C@H]1CSC(c2ccc(OC)c(F)c2)N1 (some centres not stated) : its TGI reads 3.5 µM

Noted for Cc1ccc(S(=O)(=O)N2CCCSCCSCCCSCC2)cc1 : its TGI reads > 100 µM

Noted for CCCCCCCCCCCCc1ccc(C(=O)/C=C/C(=O)O)cc1 : its TGI reads 3.39 µM

Noted for COC(=O)C1Cc2ccc(C)cc2C1=O (configuration not stated) : its TGI reads > 100 µM

Noted for CC(=O)Oc1c(C)cc(-c2cc(C)c(OC(C)=O)c(C)c2)cc1C : its TGI reads > 100 µM

Noted for CCOC(=O)c1c(O)[nH]c(=O)c(CC)c1C : its TGI reads > 100 µM

Noted for CC(=O)Oc1cc(OC(C)=O)c2c(=O)c3ccccc3n(C)c2c1 : its TGI reads 74.7 µM

Noted for COC(=O)c1cnc(=O)n(C2CC(O)C(CO)O2)c1 (configuration not stated) : its TGI reads > 100 µM

Noted for COc1cc(N(CCC#N)CCC#N)ccc1/C(N=Nc1ccc(C)cc1)=N/NC(=O)c1cc(Br)ccc1O : its TGI reads 41.2 µM

Noted for CC(Cc1ccc(Cl)cc1Cl)NO (configuration not stated) : its TGI reads > 100 µM

Noted for CC(=O)OCCC1c2ccccc2-n2nc(-c3ccccc3)c(O)c21 (configuration not stated) : its TGI reads 30.4 µM

Noted for CCOC(=O)/C(C1=N[C@H](C(=O)OCC)CS1)=C(\C)O : its TGI reads > 100 µM

Noted for CC(NC1=CC(=O)c2ncccc2C1=O)C(O)c1ccccc1 (configuration not stated) : its TGI reads 15.2 µM

Noted for COc1c(Cl)ccc(Cl)c1C(=O)NNC(=O)c1c(Cl)c(Cl)c(Cl)c(Cl)c1-c1nc2ccc(C(=O)c3ccccc3)cc2[nH]1 : its TGI reads > 100 µM

Noted for S=c1[nH]nc(COc2ccc(Cl)cc2)o1 : its TGI reads > 100 µM

Ref: PubChem BioAssay (NCI)
